Reference for the values: patent US20140170239A1

Target: T1, biotinylated p53β peptide (human, also: biotinylated, site not given here)
T1 construct: also called biotinylated p53-aggregating peptide
T1 peptide: ILTIITL
Test: peptide-binding assay: peptide spots on membrane, biotinylated p53β peptide, streptavidin-HRP
Where no end group is shown, it is not given here.
attributeMeasured: Coaggregation (peptide binding)

Consider the worked cases shown below.
ILTILCL (spot-synthesized on membrane; also called position Nr 5) [TAGAP_HUMAN peptide ILTILCL] | 4.8%
ALVIITL (spot-synthesized on membrane; also called position Nr 23) [CCNI2_HUMAN peptide ALVIITL] | 43.4%
ILTNTTL (spot-synthesized on membrane; also called position Nr 21) [CC132_HUMAN peptide ILTNTTL] | 77%

Now for another entry.
Quick one: Coaggregation (peptide binding) for ILDIITS (spot-synthesized on membrane; also called annexin-6 peptide fragment; position Nr 29) [ANXA6_HUMAN peptide ILDIITS] ?
78.9%
